tested on: Fluoroquinolone Sensitive Strains; experiment: In-vitro antimicrobial test (MIC, two-fold serial agar dilution, NCCLS), Table 17; assay type: cell-based; details: Enterococcus faecalis, ATCC29212, E. faecalis ATCC 29212
experimental.readout: MIC (µg/mL)

molecule: C[C@H]1COc2c(N3CCN(C)CC3)c(F)cc3c(=O)c(C(=O)O)cn1c23 [S-(−)-levofloxacin, reference compound]
experimental.readout: MIC
measured: 0.8
//
molecule: Cc1c(N2CC[C@@H](N)[C@H](C)C2)c(F)cc2c(=O)c(C(=O)O)cn(C3CC3)c12 (single isomer, unassigned)
experimental.readout: MIC
measured: 0.2
//
molecule: Cc1c(N2CC[C@@H](N)[C@H](C)C2)c(F)cc2c(=O)c(C(=O)O)cn(C3CC3)c12.Cl (single isomer, unassigned)
experimental.readout: MIC
measured: 0.1
//
molecule: Cc1c(N2CCC(N)C(C)(C)C2)c(F)cc2c(=O)c(C(=O)O)cn(C3CC3)c12.Cl (racemic)
experimental.readout: MIC
measured: 0.05
//
molecule: COc1c(N2C[C@@H]3CCCN[C@@H]3C2)c(F)cc2c(=O)c(C(=O)O)cn(C3CC3)c12 [Moxifloxacin, reference compound]
experimental.readout: MIC
measured: 0.2
//
molecule: Cc1c(N2CCC(O)C(C)(C)C2)c(F)cc2c(=O)c(C(=O)O)cn(C3CC3)c12 (racemic)
experimental.readout: MIC
measured: 0.05
//
molecule: Cc1c(N2CC[C@@H](O)[C@H](C)C2)c(F)cc2c(=O)c(C(=O)O)cn(C3CC3)c12 (relative stereo)
experimental.readout: MIC
measured: 0.1
//
molecule: Cc1c(N2CC[C@H](N)[C@H](C)C2)c(F)cc2c(=O)c(C(=O)O)cn(C3CC3)c12.Cl (relative stereo)
experimental.readout: MIC
measured: 0.1
//
molecule: Cc1c(N2CC[C@H](O)[C@H](C)C2)c(F)cc2c(=O)c(C(=O)O)cn(C3CC3)c12 (relative stereo)
experimental.readout: MIC
measured: 0.05

Where do the numbers come from? From patent US6878713B2.
